target_desc: Tyrosine-protein phosphatase non-receptor type 1 (Homo sapiens)
Sequence (P18031 whole entry): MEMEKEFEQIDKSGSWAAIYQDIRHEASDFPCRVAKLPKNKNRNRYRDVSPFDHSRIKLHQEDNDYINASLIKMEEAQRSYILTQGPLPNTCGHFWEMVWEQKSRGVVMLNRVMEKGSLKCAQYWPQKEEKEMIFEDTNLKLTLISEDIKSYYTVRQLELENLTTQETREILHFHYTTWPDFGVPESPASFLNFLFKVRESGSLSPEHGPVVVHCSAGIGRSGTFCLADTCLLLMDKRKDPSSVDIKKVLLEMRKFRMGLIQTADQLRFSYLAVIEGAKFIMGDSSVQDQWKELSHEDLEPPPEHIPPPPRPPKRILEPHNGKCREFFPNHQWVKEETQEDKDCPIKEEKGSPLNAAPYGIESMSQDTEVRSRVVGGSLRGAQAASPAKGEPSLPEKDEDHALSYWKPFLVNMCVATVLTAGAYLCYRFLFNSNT
measurement_type: IC50 (µM)
API: value field is a number in µM; no unit string.

**Q:** I would be grateful if you could share the reported IC50 for CC1=CC(C)(C)N=C2C[C@@]3(C)CC(=O)C(C(C)C)=CC3=C12 .
**A:** 9.97

The measured values listed here are drawn from ChEMBL document CHEMBL3232899.
